- Test system: Mus musculus
- experimental protocol: Nootropic effect of the compound, when administered subcutaneously, on mouse passive Avoidance test, using Scopolamine as Amnesic drug on 1 st day
- Assay type: functional
property name: Entry latency (s)

* CCC(=O)N1CCN(C(=O)c2ccc(OC)cc2)CC1 | 17.6
* CCCC(=O)N1CCN(C(=O)c2ccc(F)cc2)CC1 | 19.8
* CCCC(=O)N1CCN(S(=O)(=O)c2ccccc2)CC1 | 15
* CCC(=O)N1CCN(Cc2ccccc2)CC1 | 12.8
* CCC(=O)N1CCN(C(=O)c2ccc([N+](=O)[O-])cc2)CC1 | 18.8
* CC(=O)N1CCN(S(=O)(=O)c2ccc(F)cc2)CC1C (configuration not stated) | 16.6
* CCC(=O)N1CCN(S(=O)(=O)c2ccc(F)cc2)CC1 | 15.9
* CCCCCC(=O)N1CCN(S(=O)(=O)c2ccc(F)cc2)CC1 | 16.6
* CCC(=O)N1CCN(S(=O)(=O)c2ccccc2)CC1 | 19
* CCCN1CCN(S(=O)(=O)c2ccc(F)cc2)CC1 | 15.3
* CCC(=O)N1CCN(C(=O)c2ccc(F)cc2)CC1 | 16.9
* CC(=O)N1CCN(C(=O)c2ccccc2)CC1 | 11.3

###

- Test system: Mus musculus
- experimental protocol: Nootropic effect of the compound, when administered subcutaneously, on mouse passive Avoidance test, using Scopolamine as Amnesic drug on 1 st day
- Type: functional
Measured Entry latency values are reported for all entries that follow.
property name: Entry latency (s)

* CCC(=O)N1CCN(S(=O)(=O)c2ccc(C)cc2)CC1 | 16.6
* CC(=O)N1CCN(S(=O)(=O)c2ccccc2)CC1 | 17.5
* CCC(=O)N1CCN(C(=O)c2ccccc2)CC1 | 20.5
* CCCC(=O)N1CCN(C(=O)c2ccccc2)CC1 | 13.8
* CC(=O)N1CCN(S(=O)(=O)c2ccc(F)cc2)CC1 | 19.8
* CC(=O)N1CCN(C(=O)c2ccc(F)cc2)CC1 | 17.5
* CN1C2CC(OC(=O)C(CO)c3ccccc3)CC1C1OC12.NC(=O)CN1CCCC1=O (configuration not stated) | 17.6

###

Measured minimal effective dose values are reported for all entries that follow.
- Test system: Mus musculus
- experimental protocol: Minimum effective dose administered subcutaneously in mouse passive avoidance test
- Type: functional
- conditions used: sc, read-out: MED
property name: minimal effective dose

• CCCCC(=O)N1CCN(S(=O)(=O)c2ccc(F)cc2)CC1 = > 0.1 mg/kg
• CCC(=O)N1CCN(S(=O)(=O)c2ccc(Cl)cc2)CC1 = > 0.1 mg/kg
• CCCC(=O)N1CCN(S(=O)(=O)c2ccc(F)cc2)CC1 = > 10 mg/kg
